B1: ATL3 (parent)
chain: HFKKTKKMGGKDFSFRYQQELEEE

Variants of: B1
Experiment: protein stability index of a GFP-peptide fusion (GPS, HEK-293T) (PSI 1-6); higher = more stable;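 note: lentivirally expressed fusions sorted by FACS into six bins by GFP to DsRed ratio, PSI derived from sequencing read proportions per bin multiplied by bin number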
Settings: c terminus: a fixed tail appended
Please mark true (1) if the recorded protein stability index is equal to or greater than 3, and false (0) if it falls below.

K11P
false (0)
T5S
false (0)
D12L
false (0)
G10E
true (1)
F15D
false (0)
T5A
false (0)
S14L
false (0)
G10F
false (0)
E23A
false (0)
T5V
false (0)
E22N
false (0)
K6P
false (0)
E20F
true (1)
K4W
false (0)
K11V
false (0)
D12Y
false (0)
Q19K
false (0)
H1S
false (0)
K7H
false (0)
E20D
false (0)
T5P
false (0)
K6R
false (0)
F2D
false (0)
K11Y
false (0)
F13D
true (1)
Q18Y
false (0)
Q19A
true (1)
E20G
true (1)
Q19N
true (1)
T5N
false (0)
S14N
true (1)
K3N
false (0)
K7Q
false (0)
M8P
false (0)
E23P
true (1)
E23S
false (0)
L21C
false (0)
K3Q
true (1)
F2G
false (0)
Y17K
true (1)
T5M
false (0)
Y17E
true (1)
E20C
true (1)
E20S
true (1)
G10P
false (0)
F13K
true (1)

Reference source: the supplement of paper PMC10567573
